Recorded soluble fraction (log2), one value per entry.
- experiment-notes: soluble fraction after stress (log2 fold change); higher = more stays soluble; pooled small domains, quantitative proteomics;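 also: 20 min heating vs room temperature control held 20 min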
- particulars: stress: 75 degC
The answer should be written as a number, with no unit following it.

>  <sequence-entry>
HMTGSAETRGITLTDEQVTVWAKDGSWANYVYRATDGNWYDGSGRLYYENGGGEWTQAATGEQGS

>  <numeric-result>
0.126

$$$$

Query :: Param item = HMLPDSQLMKEATAWFMRQAADDFSGAERRRLDAWRAQSPAHARAYHQVQALWNAPELQQAAAR ; retrieve measured soluble fraction (log2).
Result :: -0.113

Query :: Which soluble fraction (log2) is listed for HMEIVQVIAQNIQDLLDKHKISVSELSGYLGISRQTLTNYLKTTSTIDSVQLVKIADFFNIPAEYLLKDH ?
Result :: -1.5
